- System: BJ
- ASSAY_PROTOCOL: Cytostatic/cytotoxic MTT assay, BJ fibroblasts
- Format: cell-based
- TEST_CONDITIONS: Homo sapiens, 72 h, read-out: MTT, IC50 BJ
- Protocol: Unless otherwise stated, all cells were purchased from the American Tissue Culture Collection (ATCC). […] The optical density was measured at 540 nm. […] In vitro cytotoxic/cytostatic activity final nucleosides 1-5 was initially evaluated against […] cell lines derived from human solid tumors including lung (A549 cells) and colon (HCT116 and HCT116p53−/−) carcinomas, as well as leukemia cell lines (CCRF-CEM, CEM-DNR, K562 and K562-TAX) and, for comparison, non-malignant BJ and MRC-5 fibroblasts. […]
MEASURED_PROPERTY: pIC50
As a rule, pIC50 stands for the negative log10 of the concentration, concentration in M.

*Q* Give me measured pIC50, please, for this compound: Cc1ncnc2c1ccn2[C@@H]1O[C@H](CO)[C@@H](O)[C@H]1O [RC5, reference compound]
*A* 7.15

###

Recorded pIC50 for the following molecules
- Tested on: BJ
- ASSAY_PROTOCOL: Cytostatic/cytotoxic MTT assay, BJ fibroblasts
- Type: cell-based
- TEST_CONDITIONS: Homo sapiens, non-malignant fibroblasts, 72 h, read-out: MTT, IC50 BJ
As a rule, pIC50 stands for the negative log10 of the concentration, concentration in M.

Answered examples (5):
1. COc1ncnc2c1c(-c1ccoc1)cn2[C@@H]1O[C@H](CO)[C@@H](O)[C@H]1O = 4.54
2. CNc1ncnc2c1ccn2[C@@H]1O[C@H](CO)[C@@H](O)[C@H]1O [RC3, reference compound] = 4.04
3. COc1ncnc2c1c(-c1cc3ccccc3o1)cn2[C@@H]1O[C@H](CO)[C@@H](O)[C@H]1O = 4.65
4. Cc1ncnc2c1c(-c1ccco1)cn2[C@@H]1O[C@H](CO)[C@@H](O)[C@H]1O = 7.15
5. CSc1ncnc2c1c(-c1ccsc1)cn2[C@@H]1O[C@H](CO)[C@@H](O)[C@H]1O = 4.02

Query molecule follows.
*Q* Give me measured pIC50, please, for this molecule: CN(C)c1ncnc2c1ccn2[C@@H]1O[C@H](CO)[C@@H](O)[C@H]1O [RC4, reference compound]
*A* 5.28

###

- System: HL60
- ASSAY_PROTOCOL: XTT cytotoxicity assay, HL-60
- Type: cell-based
- TEST_CONDITIONS: Homo sapiens, HL-60; 72 h incubation; read-out: XTT, IC50 HL60
Recorded pIC50 for the following molecules
As a rule, pIC50 stands for the negative log10 of the concentration, concentration in M.

Answered examples (3):
1) COc1ncnc2c1c(-c1cc3ccccc3o1)cn2[C@@H]1O[C@H](CO)[C@@H](O)[C@H]1O = 5.35
2) COc1ncnc2c1c(-c1ccco1)cn2[C@@H]1O[C@H](CO)[C@@H](O)[C@H]1O = 7.00
3) CNc1ncnc2c1ccn2[C@@H]1O[C@H](CO)[C@@H](O)[C@H]1O [RC3, reference compound] = 4.89

Query molecule follows.
*Q* Give me measured pIC50, please, for this molecule: C#Cc1cn([C@@H]2O[C@H](CO)[C@@H](O)[C@H]2O)c2ncnc(OC)c12
*A* 6.72

###

- System: BJ
- ASSAY_PROTOCOL: Cytostatic/cytotoxic MTT assay, BJ fibroblasts
- Assay type: cell-based
- TEST_CONDITIONS: Homo sapiens, non-malignant fibroblasts, 72 h, read-out: MTT, IC50 BJ
Recorded IC50 for the following compounds

Answered examples (5):
1. Cc1ncnc2c1c(I)cn2[C@@H]1O[C@H](CO)[C@@H](O)[C@H]1O = > 100 µM
2. CSc1ncnc2c1c(-c1ccco1)cn2[C@@H]1O[C@H](CO)[C@@H](O)[C@H]1O = 0.26 µM
3. Cc1ncnc2c1c(-c1ccoc1)cn2[C@@H]1O[C@H](CO)[C@@H](O)[C@H]1O = 89.2 µM
4. CN(C)c1ncnc2c1c(-c1cccs1)cn2[C@@H]1O[C@H](CO)[C@@H](O)[C@H]1O = > 100 µM
5. Cc1ncnc2c1c(Br)cn2[C@@H]1O[C@H](CO)[C@@H](O)[C@H]1O = > 100 µM

*Q* Give me measured IC50, please, for this compound: CNc1ncnc2c1c(I)cn2[C@@H]1O[C@H](CO)[C@@H](O)[C@H]1O
*A* > 100 µM

*Q* Give me measured IC50, please, for this compound: COc1ncnc2c1c(-c1ccccc1)cn2[C@@H]1O[C@H](CO)[C@@H](O)[C@H]1O
*A* > 100 µM

*Q* Give me measured IC50, please, for this compound: CN(C)c1ncnc2c1c(-c1ccco1)cn2[C@@H]1O[C@H](CO)[C@@H](O)[C@H]1O
*A* > 100 µM
